# reported IC50; entries follow
Test system: human cervical carcinoma cell line KB/HeLa
Assay: XTT cytotoxicity test, KB/HeLa
Type: cell-based
Conditions: XTT test, 45 h incubation, read-out: IC50 KB/HeLa
The reply should contain only the number, in µM.

Sample answers from the record:
COc1cccc(C(=O)c2cc3cc(OC)ccc3[nH]2)c1 [Example D-68144] : 0.0066
COc1ccc2[nH]c(C(=O)c3ccccc3OC)cc2c1 [Example D-68143] : 0.035

Now, please, on to the next compound.
Q) Endpoint output: IC50 of COc1ccc(C(=O)c2cc3cc(OC)ccc3[nH]2)c(OC)c1 [Example D-68172] . Value?
A) 0.107

====

System: RKO p21 cells
Experiment: RKOp21 model, XTT assay
Format: cell-based
Settings: Homo sapiens; Table 2; read-out: RKP p21 induced IC50
Threshold-based label: IC50 under 20 nM gives yes (1), IC50 not under 20 nM gives no (0).

Consider the worked cases shown below.
COc1cccc(C(=O)c2cc3cc(OC)ccc3[nH]2)c1 : yes (1)
COc1ccc2[nH]c(C(=O)c3cccc(F)c3)cc2c1 : yes (1)
COc1ccc2[nH]c(C(=O)c3cc(OC)c(OC)c(OC)c3)cc2c1 : yes (1)

Q) Dear colleague, could you confirm whether IC50 of COc1ccc(C(=O)c2cc3cc(OC)ccc3[nH]2)c(OC)c1 falls below 20 nM? Thanks.
A) no (0)

Q) Is IC50 strictly under 20 nM for the entry COc1cc(OC)cc(C(=O)c2cc3cc(C)ccc3[nH]2)c1 ?
A) yes (1)

Q) hey, is IC50 for COc1ccc2[nH]c(C(=O)c3ccccc3)cc2c1 lower than 20 nM or not?
A) yes (1)

Q) Given the entry COc1ccc2[nH]c(C(=O)c3ccccc3OC)cc2c1 , would its reported IC50 be below 20 nM?
A) no (0)

====

System: 12 permanent human tumor cell lines
Test: Propidium iodide-based cytotoxicity assay
Assay type: cell-based
Details: 12 human tumor cell lines, read-out: average IC50 for all cell lines examined
property-measured: IC50 (nM)
Write down the numeric answer in nM and omit the unit.

Q) Need IC50, item COc1ccc2[nH]c(C(=O)c3ccccc3)cc2c1 [Example D-64131, 5-methoxy-1H-2-indolylphenyl-1-methanone]
A) 340

====

# IC50 listing for each entry below
Tested on: human glioma cell line A-172
Assay: XTT cytotoxicity test, A-172
Settings: A 172, 45 h, read-out: IC50 A-172

COc1ccc(C(=O)c2cc3cc(OC)ccc3[nH]2)c(OC)c1 : 330 nM
COc1ccc2[nH]c(C(=O)c3ccccc3OC)cc2c1 : 73 nM
COc1ccc2[nH]c(C(=O)c3cc(OC)c(OC)c(OC)c3)cc2c1 : 18.5 nM
COc1ccc2[nH]c(C(=O)c3ccccc3)cc2c1 : 51 nM

Now for another entry.
Q) I have this compound here, COc1cccc(C(=O)c2cc3cc(OC)ccc3[nH]2)c1 , and I need its recorded IC50.
A) 15 nM

====

System: human glioma cell line U373
Assay: XTT cytotoxicity test, U373
Settings: U373 MG, 45 h, read-out: IC50 U373
Assign labels as follows, please: t for IC50 below 20 nM; f for IC50 equal to or exceeding 20 nM.

COc1ccc(C(=O)c2cc3cc(OC)ccc3[nH]2)c(OC)c1 : f
COc1ccc2[nH]c(C(=O)c3ccccc3OC)cc2c1 : f
COc1cccc(C(=O)c2cc3cc(OC)ccc3[nH]2)c1 : t

Turning to the following molecule.
Q) Field: below-cutoff. Rule: recorded IC50 strictly less than 20 nM. Subject: COc1ccc2[nH]c(C(=O)c3ccccc3)cc2c1
A) f
